ASSAY SYSTEM: full-length chicken MR (Gallus gallus, UniProt C1KB84)
Construct: gene NR3C2; full-length, expressed in HEK293 cells
Sequence (C1KB84 1-986): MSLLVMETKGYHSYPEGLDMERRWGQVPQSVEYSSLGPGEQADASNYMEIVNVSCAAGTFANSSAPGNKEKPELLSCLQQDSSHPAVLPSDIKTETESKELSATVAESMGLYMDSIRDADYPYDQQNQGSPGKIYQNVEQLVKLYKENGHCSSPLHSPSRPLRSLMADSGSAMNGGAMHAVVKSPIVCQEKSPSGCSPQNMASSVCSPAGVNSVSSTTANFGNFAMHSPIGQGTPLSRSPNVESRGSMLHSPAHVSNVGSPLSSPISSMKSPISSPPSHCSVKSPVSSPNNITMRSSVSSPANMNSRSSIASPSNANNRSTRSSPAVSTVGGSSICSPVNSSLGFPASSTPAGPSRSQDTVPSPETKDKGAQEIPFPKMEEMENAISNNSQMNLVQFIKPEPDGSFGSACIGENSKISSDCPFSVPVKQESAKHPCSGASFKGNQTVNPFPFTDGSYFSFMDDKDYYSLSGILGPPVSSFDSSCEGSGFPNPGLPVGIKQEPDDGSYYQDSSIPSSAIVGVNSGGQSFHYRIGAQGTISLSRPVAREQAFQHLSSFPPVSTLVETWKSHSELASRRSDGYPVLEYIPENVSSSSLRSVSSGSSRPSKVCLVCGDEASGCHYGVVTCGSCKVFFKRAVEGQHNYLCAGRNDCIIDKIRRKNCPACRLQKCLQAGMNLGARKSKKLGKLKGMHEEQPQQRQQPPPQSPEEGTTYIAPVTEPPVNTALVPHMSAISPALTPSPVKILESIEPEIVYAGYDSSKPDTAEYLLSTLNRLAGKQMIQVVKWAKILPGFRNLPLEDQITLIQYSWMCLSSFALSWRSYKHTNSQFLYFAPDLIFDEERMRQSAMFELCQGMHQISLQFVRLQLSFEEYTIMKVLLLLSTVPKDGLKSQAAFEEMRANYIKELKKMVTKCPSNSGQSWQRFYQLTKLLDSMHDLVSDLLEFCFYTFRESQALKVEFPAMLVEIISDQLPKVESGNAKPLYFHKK
ASSAY METHOD TEXT: cell-based
Parameters: transcriptional activation of full-length MR, MMTV-luciferase reporter, concentration-response
TEST CONTEXT: HEK293; relative to aldosterone = 100%; read-out: % relative to Aldo
ATTRIBUTE MEASURED: Emax (%)
Value expressed in %; do not type the unit.

Lookup: Give recorded Emax with full-length chicken MR (Gallus gallus, UniProt C1KB84) for the following compound: CC(=O)[C@H]1CC[C@H]2[C@@H]3CCC4=CC(=O)CC[C@@H]4[C@H]3CC[C@]12C [19norProg]
Found: 68

Lookup: // fetch full-length chicken MR (Gallus gallus, UniProt C1KB84) Emax for CC(=O)S[C@@H]1CC2=CC(=O)CC[C@]2(C)[C@H]2CC[C@@]3(C)[C@@H](CC[C@@]34CCC(=O)O4)[C@H]12 [Spiron]
Found: 30

Lookup: Lab note: need Emax with full-length chicken MR (Gallus gallus, UniProt C1KB84) for entry CC(=O)[C@H]1CC[C@H]2[C@@H]3CCC4=CC(=O)CC[C@]4(C)[C@H]3CC[C@]12C [Prog] , please look it up.
Found: 62

Lookup: Any idea what Emax came out for CC(=O)[C@@]1(O)CC[C@H]2[C@@H]3CCC4=CC(=O)CC[C@]4(C)[C@H]3CC[C@@]21C [17OH-Prog] on full-length chicken MR (Gallus gallus, UniProt C1KB84)?
Found: 15

Source listed as paper doi:10.1101/265348v4.
